Target System: T1, His::lamin R55H (full-length Ce-lamin bearing the R55H mutation) (C. elegans, UniProt Q21443 1-566, R55H)
T1 sequence (looked up): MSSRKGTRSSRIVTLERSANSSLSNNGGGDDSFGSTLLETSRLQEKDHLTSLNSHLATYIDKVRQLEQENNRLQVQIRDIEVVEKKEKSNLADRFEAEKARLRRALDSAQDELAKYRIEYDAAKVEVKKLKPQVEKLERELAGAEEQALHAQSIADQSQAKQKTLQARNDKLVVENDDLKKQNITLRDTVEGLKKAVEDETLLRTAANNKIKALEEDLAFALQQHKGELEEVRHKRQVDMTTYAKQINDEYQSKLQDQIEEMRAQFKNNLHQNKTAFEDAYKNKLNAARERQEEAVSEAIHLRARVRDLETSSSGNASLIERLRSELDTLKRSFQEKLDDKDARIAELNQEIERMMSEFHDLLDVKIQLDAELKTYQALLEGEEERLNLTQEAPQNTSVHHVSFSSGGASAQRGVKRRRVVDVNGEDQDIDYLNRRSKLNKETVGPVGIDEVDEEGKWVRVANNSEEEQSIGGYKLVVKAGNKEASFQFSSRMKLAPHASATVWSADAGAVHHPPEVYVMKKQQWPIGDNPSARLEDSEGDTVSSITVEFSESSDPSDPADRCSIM
Test Summary: SPR
pKd: −log10 of the molar value.
I would appreciate it if you labelled entries satisfied when pKd is 7 or higher, otherwise not satisfied.

These solved cases illustrate the format of a correct answer.
MBP::BAF-1 S4E (natural protein, C. elegans, UniProt Q03565 1-89, looked up) MSTEVKHREFVGEPMGDKEVTCIAGIGPTYGTKLTDAGFDKAYVLFGQYLLLKKDEDLFIEWLKETAGVTANHAKTAFNCLNEWADQFM | not satisfied
MBP::BAF-1 K6A (natural protein, C. elegans, UniProt Q03565 1-89, looked up) MSTSVAHREFVGEPMGDKEVTCIAGIGPTYGTKLTDAGFDKAYVLFGQYLLLKKDEDLFIEWLKETAGVTANHAKTAFNCLNEWADQFM | not satisfied
MBP::BAF-1 S4A (natural protein, C. elegans, UniProt Q03565 1-89, looked up) MSTAVKHREFVGEPMGDKEVTCIAGIGPTYGTKLTDAGFDKAYVLFGQYLLLKKDEDLFIEWLKETAGVTANHAKTAFNCLNEWADQFM | not satisfied
Ce-lamin tail domain (residues 388–566), His-tagged (domain or fragment, C. elegans, UniProt Q21443 388-566, looked up) NLTQEAPQNTSVHHVSFSSGGASAQRGVKRRRVVDVNGEDQDIDYLNRRSKLNKETVGPVGIDEVDEEGKWVRVANNSEEEQSIGGYKLVVKAGNKEASFQFSSRMKLAPHASATVWSADAGAVHHPPEVYVMKKQQWPIGDNPSARLEDSEGDTVSSITVEFSESSDPSDPADRCSIM | satisfied

Next binder, please.
In plain terms: is recorded pKd at least 7 for MBP::BAF-1 F46E (natural protein, C. elegans, UniProt Q03565 1-89, looked up) MSTSVKHREFVGEPMGDKEVTCIAGIGPTYGTKLTDAGFDKAYVLEGQYLLLKKDEDLFIEWLKETAGVTANHAKTAFNCLNEWADQFM ?
not satisfied

meta.source: paper PMC3967975
